Recorded values, source ChEMBL document CHEMBL1155882.

SYSTEM TESTED: UniProtKB P41231
Sequence (P41231 whole entry): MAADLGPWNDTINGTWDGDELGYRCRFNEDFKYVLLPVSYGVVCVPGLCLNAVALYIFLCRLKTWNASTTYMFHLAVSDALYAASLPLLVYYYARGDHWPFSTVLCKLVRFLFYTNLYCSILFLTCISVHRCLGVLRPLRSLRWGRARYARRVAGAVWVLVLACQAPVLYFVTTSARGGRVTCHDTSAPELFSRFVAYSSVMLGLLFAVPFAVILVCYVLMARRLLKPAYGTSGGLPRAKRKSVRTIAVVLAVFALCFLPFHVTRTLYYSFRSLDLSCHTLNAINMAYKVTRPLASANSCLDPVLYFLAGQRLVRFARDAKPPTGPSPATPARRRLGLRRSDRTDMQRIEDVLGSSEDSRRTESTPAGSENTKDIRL
PROTOCOL DETAILS: Antagonist activity at human P2Y2 receptor expressed in human 1321N1 cells assessed as inhibition of UTP and ATP-induced receptor activation at 100 uM relative to UTP
Assay type: functional, cell-based
Design: scale not given: the % may be the effect or the level left
Mark Criterion met for Activity under 10%, Criterion not met if at or over.

Is the reported Activity for CCOP(=O)(Cc1ccc(NC(=O)CCNC(=O)[C@H]2O[C@@H](n3cnc4c(N)ncnc43)[C@H](O)[C@@H]2O)cc1)OCC strictly below 10%?
Criterion not met

Is the reported Activity for CCOP(=O)(Cc1ccc(NC(=O)CNC(=O)[C@H]2O[C@@H](n3ccc(=O)[nH]c3=O)[C@H](O)[C@@H]2O)cc1)OCC strictly below 10%?
Criterion met

Is the reported Activity for CCOP(=O)(Cc1ccc(NC(=O)CCNC(=O)[C@H]2O[C@@H](n3ccc(=O)[nH]c3=O)[C@H](O)[C@@H]2O)cc1)OCC strictly below 10%?
Criterion not met

Is the reported Activity for CCOP(=O)(CNC(=O)CNC(=O)[C@H]1O[C@@H](n2cnc3c(N)ncnc32)[C@H](O)[C@@H]1O)OCC strictly below 10%?
Criterion not met

Is the reported Activity for CCOP(=O)(CNC(=O)CNC(=O)[C@H]1O[C@@H](n2ccc(=O)[nH]c2=O)[C@H](O)[C@@H]1O)OCC strictly below 10%?
Criterion not met

Is the reported Activity for CCOP(=O)(CNC(=O)CCNC(=O)[C@H]1O[C@@H](n2ccc(=O)[nH]c2=O)[C@H](O)[C@@H]1O)OCC strictly below 10%?
Criterion not met

* * *

SYSTEM TESTED: P2Y purinoceptor 4 (Homo sapiens, UniProt P51582)
Sequence (P51582 whole entry): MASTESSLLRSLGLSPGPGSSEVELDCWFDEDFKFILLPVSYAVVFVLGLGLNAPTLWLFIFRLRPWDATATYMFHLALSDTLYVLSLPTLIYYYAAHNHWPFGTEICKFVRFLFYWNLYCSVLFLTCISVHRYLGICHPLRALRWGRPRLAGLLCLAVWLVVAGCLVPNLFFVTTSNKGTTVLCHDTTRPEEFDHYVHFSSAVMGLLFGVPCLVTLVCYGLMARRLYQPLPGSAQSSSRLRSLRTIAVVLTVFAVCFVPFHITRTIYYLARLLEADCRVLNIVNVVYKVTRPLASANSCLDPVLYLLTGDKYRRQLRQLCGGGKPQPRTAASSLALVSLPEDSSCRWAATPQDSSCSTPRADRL
PROTOCOL DETAILS: Antagonist activity at human P2Y4 receptor expressed in human 1321N1 cells assessed as inhibition of UTP-induced intracellular calcium mobilization at 100 uM by FLUOstar plate reader
Format: functional, cell-based
VALUE TYPE: inhibition (%)
# output: bare number, implied unit %

Notebook: CCOP(=O)(Cc1ccc(NC(=O)CNC(=O)[C@H]2O[C@@H](n3ccc(=O)[nH]c3=O)[C@H](O)[C@@H]2O)cc1)OCC , inhibition read as 4

Notebook: CCOP(=O)(Cc1ccc(NC(=O)CNC(=O)[C@H]2O[C@@H](n3cnc4c(N)ncnc43)[C@H](O)[C@@H]2O)cc1)OCC , inhibition read as 7

Notebook: CCOP(=O)(Cc1ccc(NC(=O)CCNC(=O)[C@H]2O[C@@H](n3ccc(=O)[nH]c3=O)[C@H](O)[C@@H]2O)cc1)OCC , inhibition read as 14

Notebook: CCOP(=O)(Cc1ccc(NC(=O)CCCNC(=O)[C@H]2O[C@@H](n3ccc(=O)[nH]c3=O)[C@H](O)[C@@H]2O)cc1)OCC , inhibition read as 7

Notebook: CCOP(=O)(CNC(=O)CNC(=O)[C@H]1O[C@@H](n2ccc(=O)[nH]c2=O)[C@H](O)[C@@H]1O)OCC , inhibition read as 38

Notebook: CCOP(=O)(CCNC(=O)CNC(=O)[C@H]1O[C@@H](n2ccc(=O)[nH]c2=O)[C@H](O)[C@@H]1O)OCC , inhibition read as 8

Notebook: CCOP(=O)(CNC(=O)CCNC(=O)[C@H]1O[C@@H](n2ccc(=O)[nH]c2=O)[C@H](O)[C@@H]1O)OCC , inhibition read as 6

Notebook: CCOP(=O)(CNC(=O)CCCNC(=O)[C@H]1O[C@@H](n2ccc(=O)[nH]c2=O)[C@H](O)[C@@H]1O)OCC , inhibition read as 21
